Test system: Escherichia coli TOP10
TEST PROTOCOL: shrunken log2 fold change of peptide-encoding DNA abundance (4.5 h post-induction vs induction); higher = less antimicrobial activity (less host growth inhibition)
RUN PARAMETERS: time post-induction: 4.5 h; library: site-saturation at positions 5, 18, 19, 20
Mark Criterion met for reported shrunken log2 fold change of -0.1 or greater; mark Criterion not met for anything smaller.

Examples with answers:
ENTRY SEQUENCE: RRIRNRPPRLPRPRPRPTGHPRP
CLASS NAME: Criterion met
//
ENTRY SEQUENCE: RRIRHRPPRLPRPRPRPCSCPRP
CLASS NAME: Criterion met
//
ENTRY SEQUENCE: RRIRVRPPRLPRPRPRPMYAPRP
CLASS NAME: Criterion not met
//
ENTRY SEQUENCE: RRIRYRPPRLPRPRPRPPRVPRP
CLASS NAME: Criterion met
//
ENTRY SEQUENCE: RRIRVRPPRLPRPRPRPMACPRP
CLASS NAME: Criterion not met

Is shrunken log2 fold change at least -0.1? Consider "RRIRGRPPRLPRPRPRPSKPPRP"
Criterion met

Is shrunken log2 fold change at least -0.1? Consider "RRIRPRPPRLPRPRPRPAIMPRP"
Criterion met

Is shrunken log2 fold change at least -0.1? Consider "RRIRMRPPRLPRPRPRPGGWPRP"
Criterion met

Is shrunken log2 fold change at least -0.1? Consider "RRIRLRPPRLPRPRPRPTLEPRP"
Criterion not met

Is shrunken log2 fold change at least -0.1? Consider "RRIRHRPPRLPRPRPRPNMFPRP"
Criterion not met

###

Tested on: Escherichia coli TOP10
TEST PROTOCOL: shrunken log2 fold change of peptide-encoding DNA abundance (4.5 h post-induction vs induction); higher = less antimicrobial activity (less host growth inhibition)
RUN PARAMETERS: time post-induction: 4.5 h; library: site-saturation at positions 5, 18, 19, 20
Categories are assigned from the measured shrunken log2 fold change using these intervals: 1: < -0.2; 2: ≥ -0.2 and < 0.09; 3: ≥ 0.09

Examples with answers:
ENTRY SEQUENCE: RRIRCRPPRLPRPRPRPHRNPRP
CLASS NAME: 1

ENTRY SEQUENCE: RRIRVRPPRLPRPRPRPFSCPRP
CLASS NAME: 1

ENTRY SEQUENCE: RRIRARPPRLPRPRPRPLLHPRP
CLASS NAME: 3

Band for "RRIRMRPPRLPRPRPRPCATPRP" ?
3

Band for "RRIRLRPPRLPRPRPRPQITPRP" ?
1

Band for "RRIRLRPPRLPRPRPRPDMCPRP" ?
2

Band for "RRIRLRPPRLPRPRPRPALAPRP" ?
3

Band for "RRIRERPPRLPRPRPRPVNHPRP" ?
1

Band for "RRIRIRPPRLPRPRPRPFVIPRP" ?
2

Band for "RRIRPRPPRLPRPRPRPYHNPRP" ?
1

Band for "RRIRDRPPRLPRPRPRPKMTPRP" ?
3

Band for "RRIRIRPPRLPRPRPRPFTAPRP" ?
2

Band for "RRIRLRPPRLPRPRPRPLDPPRP" ?
2

Band for "RRIRTRPPRLPRPRPRPSWWPRP" ?
3

Band for "RRIRARPPRLPRPRPRPCKSPRP" ?
2

###

Test system: Escherichia coli TOP10
TEST PROTOCOL: shrunken log2 fold change of peptide-encoding DNA abundance (4.5 h post-induction vs induction); higher = less antimicrobial activity (less host growth inhibition)
RUN PARAMETERS: time post-induction: 4.5 h; library: site-saturation at positions 5, 18, 19, 20
Mark 1 for reported shrunken log2 fold change of 0.1 or greater; mark -1 for anything smaller.

Examples with answers:
ENTRY SEQUENCE: RRIRERPPRLPRPRPRPPNAPRP
CLASS NAME: 1
//
ENTRY SEQUENCE: RRIRPRPPRLPRPRPRPKDQPRP
CLASS NAME: 1
//
ENTRY SEQUENCE: RRIRERPPRLPRPRPRPEFMPRP
CLASS NAME: -1
//
ENTRY SEQUENCE: RRIRTRPPRLPRPRPRPCDKPRP
CLASS NAME: -1
//
ENTRY SEQUENCE: RRIRSRPPRLPRPRPRPFGIPRP
CLASS NAME: -1

Is shrunken log2 fold change at least 0.1? Consider "RRIRFRPPRLPRPRPRPRLIPRP"
-1

Is shrunken log2 fold change at least 0.1? Consider "RRIRHRPPRLPRPRPRPSQYPRP"
-1

Is shrunken log2 fold change at least 0.1? Consider "RRIRHRPPRLPRPRPRPQSGPRP"
1

###

Tested on: Escherichia coli TOP10
TEST PROTOCOL: shrunken log2 fold change of peptide-encoding DNA abundance (4.5 h post-induction vs induction); higher = less antimicrobial activity (less host growth inhibition)
RUN PARAMETERS: time post-induction: 4.5 h; library: site-saturation at positions 5, 18, 19, 20
Categories are assigned from the measured shrunken log2 fold change using these intervals: one: < -0.1; two: ≥ -0.1 and < 0.03; three: ≥ 0.03

Examples with answers:
ENTRY SEQUENCE: RRIRSRPPRLPRPRPRPRMYPRP
STUDY TARGET: Escherichia coli TOP10
CLASS NAME: one
--
ENTRY SEQUENCE: RRIRHRPPRLPRPRPRPNANPRP
STUDY TARGET: Escherichia coli TOP10
CLASS NAME: one
--
ENTRY SEQUENCE: RRIRKRPPRLPRPRPRPQEAPRP
STUDY TARGET: Escherichia coli TOP10
CLASS NAME: two
--
ENTRY SEQUENCE: RRIRSRPPRLPRPRPRPDCEPRP
STUDY TARGET: Escherichia coli TOP10
CLASS NAME: three
--
ENTRY SEQUENCE: RRIRCRPPRLPRPRPRPGINPRP
STUDY TARGET: Escherichia coli TOP10
CLASS NAME: one

Band for "RRIRLRPPRLPRPRPRPLIIPRP" ?
one

Band for "RRIRYRPPRLPRPRPRPWAEPRP" ?
two

Band for "RRIRSRPPRLPRPRPRPICRPRP" ?
two

Band for "RRIRFRPPRLPRPRPRPDGVPRP" ?
one

Band for "RRIRMRPPRLPRPRPRPEVEPRP" ?
two

Band for "RRIRFRPPRLPRPRPRPGWPPRP" ?
three

Band for "RRIRYRPPRLPRPRPRPKVLPRP" ?
two

Band for "RRIRDRPPRLPRPRPRPERPPRP" ?
two

Band for "RRIRHRPPRLPRPRPRPGTKPRP" ?
two

Band for "RRIRWRPPRLPRPRPRPAEPPRP" ?
three

###

Test system: Escherichia coli TOP10
TEST PROTOCOL: shrunken log2 fold change of peptide-encoding DNA abundance (4.5 h post-induction vs induction); higher = less antimicrobial activity (less host growth inhibition)
RUN PARAMETERS: time post-induction: 4.5 h; library: site-saturation at positions 5, 18, 19, 20
OBSERVATION TYPE: shrunken log2 fold change

Some sequences with recorded shrunken log2 fold change:
ENTRY SEQUENCE: RRIRMRPPRLPRPRPRPNPFPRP
shrunken log2 fold change: 0.211
--
ENTRY SEQUENCE: RRIRWRPPRLPRPRPRPIFLPRP
shrunken log2 fold change: -0.509
--
ENTRY SEQUENCE: RRIRPRPPRLPRPRPRPSKMPRP
shrunken log2 fold change: -0.169
--
ENTRY SEQUENCE: RRIRDRPPRLPRPRPRPVHMPRP
shrunken log2 fold change: 0.111
--
ENTRY SEQUENCE: RRIRERPPRLPRPRPRPQIKPRP
shrunken log2 fold change: -0.723

Give shrunken log2 fold change for each of the items listed below.
1. RRIRCRPPRLPRPRPRPGEEPRP
2. RRIRERPPRLPRPRPRPFDEPRP
3. RRIRFRPPRLPRPRPRPRKTPRP
4. RRIRKRPPRLPRPRPRPHFSPRP
5. RRIRSRPPRLPRPRPRPCEMPRP
6. RRIRHRPPRLPRPRPRPRAHPRP
7. RRIRYRPPRLPRPRPRPNWKPRP

1: 0.135; 2: -0.433; 3: 0.0798; 4: -0.0531; 5: 0.0253; 6: 0.216; 7: 0.138

###

Tested on: Escherichia coli TOP10;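 further: peptides expressed intracellularly from a pBAD plasmid library in pooled LB shake-flask culture, induced with 0.3% L-arabinose, DNA abundance read by NGS, three biological replicates, DESeq2 with apeglm shrinkage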
TEST PROTOCOL: shrunken log2 fold change of peptide-encoding DNA abundance (4.5 h post-induction vs induction); higher = less antimicrobial activity (less host growth inhibition)
RUN PARAMETERS: time post-induction: 4.5 h; library: site-saturation at positions 5, 18, 19, 20
OBSERVATION TYPE: shrunken log2 fold change
Numbers only.

Some sequences with recorded shrunken log2 fold change:
ENTRY SEQUENCE: RRIRVRPPRLPRPRPRPCEQPRP
shrunken log2 fold change: 0.211

ENTRY SEQUENCE: RRIRDRPPRLPRPRPRPNMVPRP
shrunken log2 fold change: 0.136

ENTRY SEQUENCE: RRIRIRPPRLPRPRPRPLEWPRP
shrunken log2 fold change: -0.0139

Give shrunken log2 fold change for each of the items listed below.
1. RRIRKRPPRLPRPRPRPNAYPRP
2. RRIRFRPPRLPRPRPRPEDAPRP
3. RRIRIRPPRLPRPRPRPCTTPRP
4. RRIRIRPPRLPRPRPRPPCYPRP

[-0.082, 0.00922, -0.543, -0.154]

Give shrunken log2 fold change for each of the items listed below.
1. RRIRSRPPRLPRPRPRPLLWPRP
2. RRIRVRPPRLPRPRPRPITQPRP
3. RRIRARPPRLPRPRPRPGENPRP
4. RRIRMRPPRLPRPRPRPCAPPRP
5. RRIRRRPPRLPRPRPRPGCQPRP

1. 0.236
2. -0.0754
3. 0.687
4. 0.478
5. -0.176

Give shrunken log2 fold change for each of the items listed below.
1. RRIRQRPPRLPRPRPRPSDVPRP
2. RRIRKRPPRLPRPRPRPIPSPRP
3. RRIRPRPPRLPRPRPRPLSRPRP

1: -0.0706; 2: 0.422; 3: 0.0978

Give shrunken log2 fold change for each of the items listed below.
1. RRIRKRPPRLPRPRPRPMHIPRP
2. RRIRHRPPRLPRPRPRPRWGPRP
3. RRIRTRPPRLPRPRPRPTPQPRP
4. RRIRRRPPRLPRPRPRPSYPPRP
5. RRIRFRPPRLPRPRPRPNYGPRP
6. RRIRRRPPRLPRPRPRPNRQPRP
7. RRIRERPPRLPRPRPRPYEEPRP
8. RRIRARPPRLPRPRPRPRRYPRP

1: 0.078; 2: 0.255; 3: 0.241; 4: -0.115; 5: -0.125; 6: -0.031; 7: -0.636; 8: 0.255
